test: Human HepG2 cell viability assay in 384 well format; assay type: toxicity, cell-based; set-up: dose 125 nL, time 70.5 hour; concentration not given beside the values; details: HepG2 cells, read-out: Inhibition
parameter: cytotoxicity at 70.5 h (%)
Give bare numbers, in %.

compound | cytotoxicity at 70.5 h [%]
NC(=O)C1CCN(C(=O)NCc2ccc(-c3ccn[nH]3)cc2)CC1 | -6.11
CC(C(=O)NCc1ccc(N2CCCCCC2)nc1)n1cncn1 (configuration not stated) | 3.18
COCCN(Cc1nccs1)c1nc2c(s1)c(C)nn2C | -10.8
Cc1ccc(N2CCC(C(O)Cc3ccccc3)CC2)nn1 (configuration not stated) | 1.34
CC(C)C(=O)Nc1cccc(C(=O)Nc2ccccn2)c1 | -25.2

Fill in cytotoxicity at 70.5 h for each of the 4 compounds listed.
1. Cc1cc(C(F)(F)F)nc(CNc2cc(C)nc3cc(C)nn23)n1
2. CC(C(=O)NCCCN1CCN(c2ccccc2)CC1)n1cncn1 (configuration not stated)
3. CNC(=O)CN1CCOCC2(C1)CN(C(=O)C(C)C)CCO2 (configuration not stated)
4. CCn1nc(C)c2c1cnn2CC(=O)N1CCN(C)CC1

[A]
1: -2.86; 2: -15.9; 3: -9.58; 4: -1.92

Fill in cytotoxicity at 70.5 h for each of the 3 compounds listed.
1. CC(C)C(=O)N1C[C@H]2CCCN[C@H]2C1
2. CNC(=O)CCN1CCC(c2nnc(Cn3cccn3)n2C2CC2)CC1
3. CC(O)CCN(C)S(=O)(=O)Cc1ccc(Cl)c(Cl)c1 (configuration not stated)

[A]
-5.18
-8.33
-3.92

###

assay: Human HepG2 cell viability assay in 384 well format; format: toxicity, cell-based; set-up: dose 125 nL, time 70.5 hour; concentration not given beside the values; conditions: HepG2 cells, read-out: Inhibition
parameter: cytotoxicity at 70.5 h (%)
Numbers only, in %.

Fill in cytotoxicity at 70.5 h for each of the 2 molecules listed.
1. COCc1nc(CN2CC(Cc3ccccc3)CC2=O)no1 (configuration not stated)
2. Cc1noc(COCC(=O)Nc2ncccc2Br)n1

[A]
-8.93
2.34

Fill in cytotoxicity at 70.5 h for each of the 4 molecules listed.
1. CCn1ncc2c1C(COC)N(C(=O)c1ccsc1)CC2 (configuration not stated)
2. CN(C)c1cncc(C2CCCN2S(=O)(=O)c2cn(C)cn2)n1 (configuration not stated)
3. CN1CCN(Cc2cccc(NCc3ncc[nH]3)c2)CC1
4. CNC(=O)CCN1CCCC1c1ccccc1Br (configuration not stated)

[A]
-6.73
14.9
8
28

Fill in cytotoxicity at 70.5 h for each of the 3 molecules listed.
1. COCc1nnc(-c2cccc(C(=O)N(C)CC(C)(C)C)c2)o1
2. COc1ccc(-c2noc([C@@H]3C[C@H](NC(=O)NC(C)C)CN3C)n2)cc1
3. O=C(O)c1cnc(OCC2CC2)c(Cl)c1

[A]
1: -14.1; 2: -0.383; 3: -0.42

Fill in cytotoxicity at 70.5 h for each of the 2 molecules listed.
1. O=C([C@H]1CC[C@@H]2[C@@H](CCN2Cc2nccs2)O1)N1CCCCO1
2. CCc1nc(C2CCCN2CCCS(N)(=O)=O)no1 (configuration not stated)

[A]
1. -5.06
2. -3.37

Fill in cytotoxicity at 70.5 h for each of the 2 molecules listed.
1. O=C(c1ccc[nH]1)N1CC2(CCN(c3ncccn3)C2)C1
2. CCNc1nc(-c2cccnc2)c(-c2ccnc(N3CCOCC3)n2)s1

[A]
1: 1.3; 2: -10.7

Fill in cytotoxicity at 70.5 h for each of the 4 molecules listed.
1. CC(=O)NCCCC(=O)NC1(c2ccc(Cl)c(Cl)c2)CC1
2. CN1CCOCC12CCN(c1ccc(C#N)cc1)CC2
3. CC(C)Oc1cccc(F)c1C(C(=O)O)N1CCCC1 (configuration not stated)
4. COc1ccc(C(=O)N2CCN3C(=O)CNC(=O)[C@@H]3C2)cc1

[A]
1. 2.93
2. -5.69
3. -11.9
4. 12.5
